These measurements were taken from ChEMBL document CHEMBL2440008.

# Target or test system: Cytochrome P450 2D6 (Homo sapiens, UniProt P10635)
# Experiment description: Inhibition of CYP2D6 (unknown origin) preincubated prior to substrate addition
# Type: ADME
# Sequence (P10635 whole entry): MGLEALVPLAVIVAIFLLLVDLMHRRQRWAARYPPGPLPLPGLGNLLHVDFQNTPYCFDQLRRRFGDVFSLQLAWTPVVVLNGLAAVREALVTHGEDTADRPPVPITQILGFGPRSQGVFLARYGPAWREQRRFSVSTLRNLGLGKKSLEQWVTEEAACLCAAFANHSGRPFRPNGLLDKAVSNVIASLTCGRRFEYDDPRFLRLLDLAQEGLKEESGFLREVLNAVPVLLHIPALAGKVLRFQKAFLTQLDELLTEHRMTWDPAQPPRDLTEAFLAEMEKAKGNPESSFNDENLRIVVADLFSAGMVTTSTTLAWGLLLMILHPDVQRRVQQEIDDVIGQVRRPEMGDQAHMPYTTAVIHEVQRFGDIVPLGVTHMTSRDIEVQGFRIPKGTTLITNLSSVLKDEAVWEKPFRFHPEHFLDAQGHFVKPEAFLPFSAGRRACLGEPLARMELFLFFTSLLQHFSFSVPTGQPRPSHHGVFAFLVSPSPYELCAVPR
Items are presented alongside their recorded IC50.

# Smi, Target or test system, IC50
records = [
    ("CC(C)OC(=O)N1CCN(c2ccc(NC(=O)c3oc(N4CCCCC4)nc3C(F)(F)F)cn2)CC1", "Cytochrome P450 2D6 (Homo sapiens, UniProt P10635)", "> 20 µM"),
    ("O=C(Nc1ccc(N2CCN(C(=O)Nc3ccccc3Cl)CC2)nc1)c1oc(N2CCCCC2)nc1C(F)(F)F", "Cytochrome P450 2D6 (Homo sapiens, UniProt P10635)", "> 20 µM"),
]

----------
# Target or test system: Cytochrome P450 2D6 (Homo sapiens)
# Experiment description: Inhibition of CYP2D6 (unknown origin) coincubated with substrate
# Sequence (P10635 whole entry, looked up): as the sequence (P10635 whole entry) above
pIC50: −log10 of the molar value.
Items are presented alongside their recorded pIC50.

# Smi, pIC50
rows = [
    ("CC(C)OC(=O)N1CCN(c2ccc(NC(=O)c3oc(N4CCCCC4)nc3C(F)(F)F)cn2)CC1", "< 4.70"),
    ("O=C(Nc1ccc(N2CCN(C(=O)Nc3ccccc3Cl)CC2)nc1)c1oc(N2CCCCC2)nc1C(F)(F)F", "< 4.70"),
]

----------
# Target or test system: hERG (Homo sapiens)
# Sequence (Q12809 whole entry): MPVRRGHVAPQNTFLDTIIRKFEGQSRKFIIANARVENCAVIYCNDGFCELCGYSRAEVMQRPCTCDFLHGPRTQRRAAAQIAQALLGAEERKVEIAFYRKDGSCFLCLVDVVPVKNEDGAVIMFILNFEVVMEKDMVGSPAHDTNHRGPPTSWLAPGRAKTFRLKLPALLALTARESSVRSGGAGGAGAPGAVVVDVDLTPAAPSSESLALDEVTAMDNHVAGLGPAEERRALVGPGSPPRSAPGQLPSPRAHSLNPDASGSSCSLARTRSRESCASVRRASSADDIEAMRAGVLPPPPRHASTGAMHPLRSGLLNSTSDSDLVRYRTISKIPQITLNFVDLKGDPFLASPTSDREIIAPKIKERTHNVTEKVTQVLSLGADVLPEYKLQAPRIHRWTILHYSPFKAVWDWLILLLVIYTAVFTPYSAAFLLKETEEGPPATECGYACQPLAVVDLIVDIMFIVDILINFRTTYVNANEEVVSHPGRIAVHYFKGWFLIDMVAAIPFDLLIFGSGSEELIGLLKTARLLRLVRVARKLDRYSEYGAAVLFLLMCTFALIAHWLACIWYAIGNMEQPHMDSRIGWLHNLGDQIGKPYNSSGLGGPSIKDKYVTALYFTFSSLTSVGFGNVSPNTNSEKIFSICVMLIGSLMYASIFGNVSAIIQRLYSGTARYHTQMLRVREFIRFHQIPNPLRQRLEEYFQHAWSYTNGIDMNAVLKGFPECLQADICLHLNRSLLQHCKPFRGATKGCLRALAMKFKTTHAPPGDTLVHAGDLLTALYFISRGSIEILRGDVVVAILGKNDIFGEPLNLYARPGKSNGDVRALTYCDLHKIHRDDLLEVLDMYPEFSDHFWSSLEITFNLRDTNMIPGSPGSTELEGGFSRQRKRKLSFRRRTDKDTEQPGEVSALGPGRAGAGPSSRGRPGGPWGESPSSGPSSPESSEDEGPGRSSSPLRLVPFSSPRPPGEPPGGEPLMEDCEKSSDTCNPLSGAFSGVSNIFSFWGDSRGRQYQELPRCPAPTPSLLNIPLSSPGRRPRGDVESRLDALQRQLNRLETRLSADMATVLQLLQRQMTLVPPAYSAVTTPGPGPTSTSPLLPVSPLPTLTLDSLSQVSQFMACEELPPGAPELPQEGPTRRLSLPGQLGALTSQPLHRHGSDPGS
# Experiment description: Inhibition of human ERG at 10 uM relative to control

# Smi, inhibition at 10 µM / %
records = [
    ("CC(C)OC(=O)N1CCN(c2ccc(NC(=O)c3oc(N4CCCCC4)nc3C(F)(F)F)cn2)CC1", 40),
]
